target-under-test: Rac-1 (Homo sapiens, UniProt P63000)
assay-name: Scintillation Proximity Assay (SPA), GTP affinity
Format: binding
pKd: −log10 of the molar value.
property-measured: pKd

Nc1nc2c(ncn2[C@@H]2O[C@H](COP(=O)(O)OP(=O)(O)OP(=O)(O)O)[C@@H](O)[C@H]2O)c(=O)[nH]1 [GTP] = 6.82

----------
target-under-test: KRas G12D mutant (Homo sapiens, UniProt P01116, G12D)
Construct: fused on or other part: His tag, used for capture on nickel-coated plates
assay-name: Ras GTP binding domain inhibition assay (Cy3-GTP/Cy5-GTP competition)
measurement-context: 20 μM; without SOS; read-out: KRas G12D mutant: % inh.
The entries below are paired with their reported inhibition at 20 µM.
property-measured: inhibition at 20 µM

O=C(c1nc(-c2ccccn2)nc(O)c1O)N1CCc2ccccc2C1 [drawing 832] = 51 to 75%
COc1c(O)nc(-c2ccccn2)nc1Oc1ccc2ncccc2c1 [drawing 804] = 51 to 75%
COCCn1cc(Nc2nc(-c3ccccn3)nc(OC)c2OC)cn1 [drawing 793] = 1 to 25%
COCCn1ccnc1-c1nc(O)c2scc(-c3ccccn3)c2n1 [drawing 852] = 76 to 100%
COCC1CN(c2nc(-c3nccn3C)nc3sc(-c4cccc(OC)c4F)c(-c4ccc(OC)cc4)c23)C1 [drawing 805] = 51 to 75%
COc1c(O)nc(-c2ccccn2)nc1Oc1cnn(C)c1 [drawing 803] = 51 to 75%
COCCCNc1nc(-c2nccn2C)nc2sc(-c3ccn(C)n3)c(-c3ccccc3)c12 [drawing 866] = 1 to 25%
COC(=O)c1nc(C2NCCN2C)nc(O)c1O (stereo not drawn) = 51 to 75%
COC1CCN(c2nc(-c3nccn3C)nc3sc(-c4cnn(C)c4)c(-c4ccccc4)c23)C1.Cl (stereo not drawn) = 26 to 50%
